Conditions: in acetonitrile, 310.65 K
TEST READOUT: solubility (mole fraction)
I'd appreciate a reply containing only the number, no unit.

Q: // returns reported solubility (mole fraction) for input "N=C(Nc1ccccc1)Nc1ccccc1"
A: 0.0331

###

Conditions: in n-butanol, 313.15 K
TEST READOUT: solubility (mole fraction)
// no unit, no text: just the number

Q: Form field: reported solubility (mole fraction) of "N=C(Nc1ccccc1)Nc1ccccc1"
A: 0.0562

###

Conditions: in acetonitrile, 305.65 K
TEST READOUT: solubility (mole fraction)

Q: What value of solubility (mole fraction) has been reported for the following molecule? "N=C(Nc1ccccc1)Nc1ccccc1"
A: 0.0278
